Collected IC50 for human ACC2 (Homo sapiens (Human)) across several studies; compounds listed below.

{"compound": "COC(=O)NC(C)Cc1ccc(C#Cc2cnc(Oc3ccccc3)nc2)cc1 (centres unmarked)", "test.system": "human ACC2 (Homo sapiens (Human))", "measurement.unit": "nM", "IC50": 860}
{"compound": "CCNC(=O)C(C)c1ccc(C#Cc2ccc(C(C)C)cc2)cc1 (centres unmarked)", "test.system": "human ACC2 (Homo sapiens (Human))", "measurement.unit": "nM", "IC50": 1300}
{"compound": "CCC(COC)Oc1ncc(C#Cc2ccc(CC(C)NC(C)=O)cc2)cn1 (centres unmarked)", "test.system": "human ACC2 (Homo sapiens (Human))", "measurement.unit": "nM", "IC50": 1100}
{"compound": "CC(=O)N[C@@H](C)c1ccc(O[C@@H]2CCN(c3cc(OCC(F)F)ncc3F)C2)cc1", "test.system": "human ACC2 (Homo sapiens (Human))", "measurement.unit": "nM", "IC50": 124}
{"compound": "CC(=O)N[C@@H](C)c1ccc(OC2CCN(c3ccc(OCC4CCOC4)cc3)C2)cc1 (some centres unmarked)", "test.system": "human ACC2 (Homo sapiens (Human))", "measurement.unit": "nM", "IC50": 894}
{"compound": "CC(=O)N[C@@H](C)c1ccc(O[C@@H]2CCN(c3ccnc(N4CCC(F)(F)C4)c3C)C2)cc1", "test.system": "human ACC2 (Homo sapiens (Human))", "measurement.unit": "nM", "IC50": 76}
{"compound": "CC(=O)NC(C)Cc1ccc(C#Cc2cnc(NC3CCOC3)nc2)cc1 (centres unmarked)", "test.system": "human ACC2 (Homo sapiens (Human))", "measurement.unit": "nM", "IC50": 670}
{"compound": "CC(=O)NC(C)c1ccc(CN2CCc3cc(OC4CCC4)ccc3C2)cc1 (centres unmarked)", "test.system": "human ACC2 (Homo sapiens (Human))", "measurement.unit": "nM", "IC50": 110}
{"compound": "CC(=O)NC(C)Cc1ccc(C#Cc2cnc(Oc3cccc(F)c3)nc2)cc1 (centres unmarked)", "test.system": "human ACC2 (Homo sapiens (Human))", "measurement.unit": "nM", "IC50": 130}
{"compound": "CC(=O)NC(C)Cc1ccc(C#Cc2ccc(Oc3ccncc3)cc2)cc1 (centres unmarked)", "test.system": "human ACC2 (Homo sapiens (Human))", "measurement.unit": "nM", "IC50": 1200}
{"compound": "CCCOc1ccc(C#Cc2ccc(C(C)NC(C)=O)cc2)c(OC)c1 (centres unmarked)", "test.system": "human ACC2 (Homo sapiens (Human))", "measurement.unit": "nM", "IC50": 1300}
{"compound": "COC(=O)NC(C)Cc1ccc(C#Cc2cnc(OC(C)C)nc2)cc1 (centres unmarked)", "test.system": "human ACC2 (Homo sapiens (Human))", "measurement.unit": "nM", "IC50": 1100}
{"compound": "CC(=O)N[C@@H](C)c1ccc(OC2CCN(c3ncc(OCC4CC4(F)F)cc3F)C2)cc1 (some centres unmarked)", "test.system": "human ACC2 (Homo sapiens (Human))", "measurement.unit": "nM", "IC50": 115}
